Values were extracted from the supplement of paper PMC10567573.

B1: CHCHD3 (parent)
chain: YSGAYGASVSDEELKRRVAEELAL

Variants of: B1
measurement-notes: protein stability index of a GFP-peptide fusion (GPS, HEK-293T) (PSI 1-6); higher = more stable;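 note: lentivirally expressed fusions sorted by FACS into six bins by GFP to DsRed ratio, PSI derived from sequencing read proportions per bin multiplied by bin number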
recorded-conditions: c terminus: a fixed tail appended
Rule: protein stability index under 3 gives FALSE, otherwise TRUE.

Given the entry "Y5L" , answer whether its protein stability index meets or surpasses 3.
TRUE

How about "D11H" ?
FALSE

Now consider "S8G" .
TRUE

Also "Y1R" , if possible.
TRUE

Now the variant "G6F"
FALSE

Another variant to look at: "V18M"
FALSE

Proceed to "L14I"
FALSE

// repeat for "L24W" and report
FALSE
